Numbers sourced from patent US20210246166A1.

biological target: recombinant human MASP2 active protease (amino acids 297-686, C-terminal His Tag) (human, UniProt O00187 297-686); test: cell-based or functional assay
Sequence (O00187 other isoform, or with tags, fused parts or gaps limits assumed): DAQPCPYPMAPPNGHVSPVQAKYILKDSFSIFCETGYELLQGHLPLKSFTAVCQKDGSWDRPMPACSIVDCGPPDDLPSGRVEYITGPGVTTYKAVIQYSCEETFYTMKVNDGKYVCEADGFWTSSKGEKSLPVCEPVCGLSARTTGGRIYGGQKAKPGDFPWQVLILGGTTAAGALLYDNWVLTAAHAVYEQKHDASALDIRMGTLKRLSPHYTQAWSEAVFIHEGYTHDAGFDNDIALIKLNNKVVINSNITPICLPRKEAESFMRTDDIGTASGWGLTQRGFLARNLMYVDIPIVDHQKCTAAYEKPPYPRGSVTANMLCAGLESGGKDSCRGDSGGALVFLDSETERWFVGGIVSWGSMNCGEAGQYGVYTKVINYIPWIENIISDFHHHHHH
Bridge positions count the residues as written; N and C are the ends. Square brackets hold non-standard residues; d marks the D form. Ends that are not written are not given here. tBuAla = CC(C)(C)C[C@H](N)C(=O)O; Pen = CC(C)(S)[C@H](N)C(=O)O; Nva = CCC[C@H](N)C(=O)O; Sar = CNCC(=O)O
The class of a record is decided solely by its measured human MASP2 IC50; consult group A: < 200 nM; group B: ≥ 200 nM and < 900 nM; group C: ≥ 900 nM

Hi, small favor: classify [Sar]ICRRS[tBuAla]PP[Nva][Pen]IP-NH2 (disulfide 3-11; N-terminus assumed; SMILES CCC[C@@H]1NC(=O)[C@@H]2CCCN2C(=O)[C@@H]2CCCN2C(=O)[C@H](CC(C)(C)C)NC(=O)[C@H](CO)NC(=O)[C@H](CCCNC(=N)N)NC(=O)[C@H](CCCNC(=N)N)NC(=O)[C@@H](NC(=O)[C@@H](NC(=O)CNC)[C@@H](C)CC)CSSC(C)(C)[C@@H](C(=O)N[C@H](C(=O)N2CCC[C@H]2C(N)=O)[C@@H](C)CC)NC1=O) [Example 448: ((N-Me)G)-IC+RRS-((tBu)A)-PP-(Nva)-(Pen)+IP-NH2] by its human MASP2 IC50 when you get a moment.
group C
